- target entity: ER-α (Rattus norvegicus (Rat), UniProt P06211)
- Format: cell-based
- conditions: 100 nM NRBA compared to 1 nM estradiol
Mark t only when Estradiol activity at 100 nM, ER-α stays strictly below 30%. Values equal to the cut-off are f.

input: Below 30% on Estradiol activity at 100 nM, ER-α? Entry C=Cc1cn(-c2ccc(O)cc2)c(=O)c2c(O)cc(O)cc12 [Compound 14l]
output: f

input: Lookup O=c1c2ccc(O)cc2c(Br)cn1-c1ccc(O)cc1 [Compound 12b]
output: f

input: // repeat for N#Cc1cn(-c2ccc(O)cc2)c(=O)c2c(O)cc(O)cc12 [Compound 14m] and report
output: f

input: // query: COc1cc(O)c2c(=O)n(-c3ccc(O)cc3)ccc2c1C#N [Compound 12q]
output: t

input: What about this compound? O=c1c2c(O)cc(O)cc2c(Br)cn1-c1ccc(O)cc1 [Compound 12u]
output: f

input: Now give it for O=c1c2c(O)cc(O)cc2ccn1-c1ccc(O)c(F)c1 [Compound 12s] too.
output: t

input: Likewise for Oc1ccc(-n2ccc3cc(O)cc(O)c3c2=S)cc1 [Compound 12p] ?
output: f

input: # repeat for COc1cc(O)c2c(=O)n(-c3ccc(O)cc3)cc(Br)c2c1 [Compound 12v]
output: t

###

- target entity: ERα ligand binding domain (Homo sapiens (Human), UniProt P03372)
- Sequence (P03372 whole entry, looked up, species assumed, the tested form may be a part): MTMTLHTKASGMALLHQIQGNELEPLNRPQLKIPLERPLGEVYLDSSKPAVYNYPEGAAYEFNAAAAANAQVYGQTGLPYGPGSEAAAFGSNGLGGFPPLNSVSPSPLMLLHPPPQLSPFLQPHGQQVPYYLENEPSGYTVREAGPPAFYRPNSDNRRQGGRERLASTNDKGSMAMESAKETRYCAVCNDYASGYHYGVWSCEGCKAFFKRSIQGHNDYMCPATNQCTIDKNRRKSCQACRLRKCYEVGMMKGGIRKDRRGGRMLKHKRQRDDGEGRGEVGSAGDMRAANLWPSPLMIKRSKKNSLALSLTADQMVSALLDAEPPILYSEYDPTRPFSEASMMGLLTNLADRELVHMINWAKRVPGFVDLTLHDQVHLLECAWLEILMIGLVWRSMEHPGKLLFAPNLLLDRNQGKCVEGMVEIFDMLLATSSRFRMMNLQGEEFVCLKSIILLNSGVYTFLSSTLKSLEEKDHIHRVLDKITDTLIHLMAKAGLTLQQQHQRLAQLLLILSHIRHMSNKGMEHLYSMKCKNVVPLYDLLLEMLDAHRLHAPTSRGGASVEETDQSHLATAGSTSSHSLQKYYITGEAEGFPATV
Provide the reported pKi of each item.
pKi here: minus log base 10 of the concentration, concentration in moles per litre.

input: Given the compound O=c1c2c(O)cc(O)cc2c(Cl)cn1-c1ccc(O)cc1 [Compound 12y] , what is its reported pKi?
output: 7.44

input: Next record, please: O=c1c2ccc(O)cc2c(Br)cn1-c1ccc(O)cc1 [Compound 12b]
output: 6.00

input: Next compound: O=c1c2c(O)cc(O)cc2c(Br)cn1-c1ccc(O)c(F)c1 [Compound 12z]
output: 7.40

input: Now the compound O=c1c2c(O)cc(O)cc2c(Br)cn1-c1ccc(O)cc1 [Compound 12u]
output: 7.49

input: Continue with C=Cc1cn(-c2ccc(O)cc2)c(=O)c2c(O)cc(O)cc12 [Compound 14l]
output: 7.12

###

- target entity: ERβ ligand binding domain (Homo sapiens (Human))
- Sequence (Q92731 264-498, species assumed): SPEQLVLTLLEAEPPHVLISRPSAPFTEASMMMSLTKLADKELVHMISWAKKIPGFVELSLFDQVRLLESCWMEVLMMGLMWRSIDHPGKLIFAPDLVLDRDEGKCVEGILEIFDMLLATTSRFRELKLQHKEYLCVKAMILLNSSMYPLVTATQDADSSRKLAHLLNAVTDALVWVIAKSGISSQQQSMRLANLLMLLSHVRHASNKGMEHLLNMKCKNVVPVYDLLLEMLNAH
- measurement notes: Competitive [3H]-estradiol radioligand binding, ERβ (Example 21)
- conditions: ratio between the binding constants of ER-α and ER-β
In plain terms, low Ki Ratio (ER-α/ER-β), meaning strictly below 10, gives 1.0, and everything else gives 0.0.

input: Criterion: Ki Ratio (ER-α/ER-β) strictly below 10. Is it met by O=c1c2ccc(O)cc2c(Br)cn1-c1ccc(O)cc1 [Compound 12b] ?
output: 0.0

input: Now the compound O=c1c2ccc(O)cc2c(Cl)cn1-c1ccc(O)cc1 [Compound 12f]
output: 0.0

input: Now try O=c1c2c(O)cc(O)cc2ccn1-c1ccc(O)c(F)c1 [Compound 12s] .
output: 0.0

input: Item: Oc1ccc(-n2ccc3cc(O)cc(O)c3c2=S)cc1 [Compound 12p]
output: 1.0

input: Again, but for COc1ccc(-c2cn(-c3ccc(O)cc3)c(=O)c3ccc(O)cc23)cc1 [Compound 15b]
output: 1.0

input: Then this compound: O=c1c2c(O)cc(O)cc2c(Br)cn1-c1ccc(O)c(F)c1 [Compound 12z]
output: 0.0

input: Lookup O=c1c2ccc(O)cc2c(I)cn1-c1ccc(O)cc1 [Compound 12h]
output: 0.0

input: Same question for O=c1c2c(O)cc(O)cc2c(Cl)cn1-c1ccc(O)cc1 [Compound 12y] please.
output: 0.0
